- Assay Procedure: Compound toxicity for host cell cultures (CellTiter 96 tetrazolium assay)
- Assay type: cell-based, human
- Measurement Conditions: human; HDAC inhibitors; 48 h; read-out: Cytotoxicity Concentration (CC50) for HCT-8 Host Cells
Readout: CC50 at 48 h (µM)

INSERT INTO results (compound, readout, scale_unit, test_value) VALUES
  ('CCC(=O)CCCCC[C@@H]1NC(=O)[C@H]2CCCCN2C(=O)[C@H]([C@@H](C)CC)NC(=O)[C@H](Cc2cn(OC)c3ccccc23)NC1=O [Apicidin]', 'CC50 at 48 h', 'µM', 150);

###

- System: C. parvum
- Assay Procedure: C. parvum in vitro culture assay, intracellular stages in infected HCT-8 cells
- Type: cell-based, Cryptosporidium parvum IOWA isolate
- Measurement Conditions: read-out: EC50 of Intracellular Stages; HDAC inhibitors; infected HCT-8 cells, 48 h
Readout: EC50 (nM)

INSERT INTO measurements (compound_string, scale_unit, test_value) VALUES
  ('CCC(=O)CCCCC[C@@H]1NC(=O)[C@H]2CCCCN2C(=O)[C@H]([C@@H](C)CC)NC(=O)[C@H](Cc2cn(OC)c3ccccc23)NC1=O', 'nM', 40);
